- Assay: qHTS Assay for Lipid Storage Modulators in Drosophila S3 Cells;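 note: cells counted by Cell Tracker Red CMTPX staining in the red channel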
- Protocol Conditions: BODIPY lipid droplet fluorescence, 18-24 h, cells fed with added oleic acid; measured here: cell count max response
The whole screen tested about 320,000 compounds, of which about 2,100 (0.66%) were called active. Not shown: some 53% with an inconclusive outcome. Shown is part of a subset that was picked to be rich in actives.
Recorded Endpoint: cell number change

- Compound: "COCCCNC(=S)Nc1ccc2nc(N3CCOCC3)cc(C)c2c1"
  Test Value: "0.741%"
- Compound: "CC(C)=C(NC(=O)c1ccccc1)C(=O)NC(Cc1ccccc1)C(=O)O (stereo unspecified)"
  Test Value: "-15%"
- Compound: "O=C(NC(Cc1ccccc1)C(=O)O)/C(=C/c1ccccc1)NC(=O)c1ccccc1 (stereo unspecified)"
  Test Value: "-7.82%"
- Compound: "O=C(NC(Cc1ccccc1)C(=O)O)c1ccccc1 (stereo unspecified)"
  Test Value: "-3.84%"
- Compound: "COc1ccccc1NC(=O)C1CCCN(c2cnccn2)C1 (stereo unspecified)"
  Test Value: "17.3%"
- Compound: "O=C(NCc1ccco1)/C(=C/c1cccc(C(F)(F)F)c1)c1nc2ccccc2[nH]1"
  Test Value: "-4.5%"

====

- Assay: qHTS Assay for Lipid Storage Modulators in Drosophila S3 Cells;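 note: cells counted by Cell Tracker Red CMTPX staining in the red channel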
- Protocol Conditions: BODIPY lipid droplet fluorescence, 18-24 h, cells fed with added oleic acid; measured here: cell count max response
- Excerpt: NIH Molecular Libraries Probe Production Centers Network [MLPCN] NIH Chemical Genomics Center [NCGC] […] Triacsin C (Sigma-Aldrich T-4540), an inhibitor of long-chain fatty acyl CoA synthetase that blocks synthesis of triglycerides, was used as a positive control for lipid under-storage. […] Fluorescence was detected by excitation of the fluorophores with a 488-nm laser on an Acumen Explorer (TTP Lab Tech). […] Cells were detected using channel 3 (575-640 nm) with 5-um width and 100-um depth filters. […]
Screen size: about 320,000 compounds; about 2,100 (0.66%) were called active. Roughly 53% stayed inconclusive and do not appear here. Shown is part of a subset that was picked to be rich in actives.

- Molecule: "CC(=O)c1ccc(OCCCC(=O)Nc2cccc(S(=O)(=O)N(C)C)c2)cc1"
  cell number change: "1.3%"
- Molecule: "CCN(C(=O)CCNC(=O)Cn1cnc2ccccc2c1=O)c1ccccc1F"
  cell number change: "-0.794%"
- Molecule: "C=CCn1c(SCC(=O)O)nnc1-c1ccc(C(C)(C)C)cc1"
  cell number change: "5.05%"
- Molecule: "CCc1cc(C(=O)N2CCN(S(=O)(=O)c3ccc(Cl)cc3)CC2)sc1C"
  cell number change: "6.97%"
- Molecule: "C=C(C)Cn1c(SCC(=O)O)nnc1-c1ccc(C(C)(C)C)cc1"
  cell number change: "-3.69%"
- Molecule: "CCn1c(CCNC(=O)c2ccco2)nc2ccccc21"
  cell number change: "-11.3%"
- Molecule: "CCN1CCN(S(=O)(=O)Cc2ccccc2Cl)CC1"
  cell number change: "-8.44%"
- Molecule: "CN(CC(=O)Nc1ccc(Cl)cc1)CC(=O)Nc1ccc(C(N)=O)cc1"
  cell number change: "-11%"
- Molecule: "O=[N+]([O-])c1ccccc1N/N=C/c1ccccc1"
  cell number change: "-10.2%"
- Molecule: "O=C(O)CCCc1ccc2ccc3cccc4ccc1c2c34"
  cell number change: "11.3%"
- Molecule: "O=C(Nc1ccc(Cl)cc1)C1CCCN(c2ncnc3c2nc2n3CCCCC2)C1 (stereo not drawn)"
  cell number change: "-19.1%"
- Molecule: "Cc1ccc(S(=O)(=O)NCc2ccccc2)cc1C(=O)N1CCCCCCC1"
  cell number change: "-10.2%"
- Molecule: "CCN(CC(=O)Nc1ccc(OC)cc1)C(=O)CCc1nc2ccccc2c(=O)[nH]1"
  cell number change: "-4.18%"
- Molecule: "CC(=O)Nc1ccc(-n2c(C)ccc2-c2ccccc2)cc1"
  cell number change: "12.4%"
- Molecule: "COc1c(Br)cc2c(C)c(C(=O)O)oc2c1Br"
  cell number change: "24.7%"
- Molecule: "CC(C)/C(=N/Nc1ccccc1[N+](=O)[O-])c1ccccc1"
  cell number change: "-12.6%"
- Molecule: "C/C(=N/Nc1ccccc1[N+](=O)[O-])c1ccc([N+](=O)[O-])cc1"
  cell number change: "22.2%"
- Molecule: "Cc1ccc(C)c(S(=O)(=O)N2CCN(C(=O)c3ccc(C)s3)CC2)c1"
  cell number change: "6.27%"
- Molecule: "N/C(=N\\OC(=O)C12CC3CC(CC(C3)C1)C2)c1ccncc1"
  cell number change: "-16.5%"
- Molecule: "Cn1c(SCC(N)=O)nnc1-c1ccc(C(C)(C)C)cc1"
  cell number change: "-9.51%"
- Molecule: "CCc1c(C)nc(N)n2c(SCC(=O)N3CCN(c4ccccc4F)CC3)nnc12"
  cell number change: "-1.8%"
- Molecule: "Cc1ccccc1-n1nc(C)c2cc(C(=O)N3CCN(S(=O)(=O)c4ccc(Cl)cc4)CC3)sc21"
  cell number change: "-4.24%"
- Molecule: "NC(=O)C1=C[C@@H](C2CCCCC2)C[C@@H](OCCCCO)O1"
  cell number change: "1.59%"

====

- Assay: qHTS Assay for Lipid Storage Modulators in Drosophila S3 Cells;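 note: cells counted by Cell Tracker Red CMTPX staining in the red channel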
- Protocol Conditions: BODIPY lipid droplet fluorescence, 18-24 h, cells fed with added oleic acid; measured here: cell count max response
Among all 320,000 compounds or so, about 2,100 (0.66%) were called active. Another 53% or so got no clear call; they are omitted. For the sample, actives were picked, then their nearest neighbours and some compounds at random.
Measured cell number change accompanies every entry in the list below.

- Molecule: "S=C(Nc1ccc(Cl)cc1)NN1CCOCC1"
  cell number change (%): -1.28
- Molecule: "Cc1ccc(S(=O)(=O)N2CCC(=O)N(CCOCc3ccccc3C)CC2)cc1"
  cell number change (%): -1.04
- Molecule: "CC(C)CCNC(=O)C1CCC(=O)N1CCc1ccccc1 (stereo unspecified)"
  cell number change (%): 19.8
- Molecule: "COC(=O)c1c(NC(=O)CN2C(=O)NC3(CCCCC3C)C2=O)sc2c1CCC2 (stereo unspecified)"
  cell number change (%): 2.22
- Molecule: "O=C(CSCc1ccc(F)cc1)Nc1ccc(F)cc1"
  cell number change (%): 14.6
- Molecule: "COc1ccc(OC)c(NC(=O)CC2SC(=Nc3ccc(F)cc3)N(CCC3=CCCCC3)C2=O)c1 (stereo unspecified)"
  cell number change (%): 1.52
- Molecule: "CC(=O)OCC(OC(C)=O)C(OC(C)=O)C(OC(C)=O)C(=O)Nc1ccccc1 (stereo unspecified)"
  cell number change (%): 13.3
- Molecule: "COc1ccc(N(Cc2cc3ccc(C)cc3[nH]c2=O)C(=O)c2ccco2)cc1"
  cell number change (%): 1.12
- Molecule: "CN(C)C(=O)c1nc2ccc(Cl)cn2c1CNCc1ccccc1OC(F)(F)F"
  cell number change (%): -4.39
- Molecule: "c1ccc(-c2nnc(-c3ccccc3)o2)cc1"
  cell number change (%): 0.828
- Molecule: "CC(=O)Nc1ccc(SCC(=O)c2c(N)n(Cc3ccccc3)c(=O)n(C)c2=O)cc1"
  cell number change (%): 14.5

====

- Assay: qHTS Assay for Lipid Storage Modulators in Drosophila S3 Cells;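 note: cells counted by Cell Tracker Red CMTPX staining in the red channel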
- Protocol Conditions: BODIPY lipid droplet fluorescence, 18-24 h, cells fed with added oleic acid; measured here: cell count max response
About 2,100 (0.66%) of roughly 320,000 compounds were called active. About 53% were inconclusive and are not listed. Only a selection was taken, and actives are over-represented in it overall.

- Compound: "COc1ccc(C(=O)NC2CCCCCC2)cc1S(=O)(=O)Nc1ccc(Br)cc1"
  cell number change (%): -11.3
- Compound: "Cc1ccccc1NS(=O)(=O)c1ccc(OCC(=O)NCc2ccccn2)cc1"
  cell number change (%): 6.59
- Compound: "CN1CCN(C(c2ccccc2)c2ccccc2)CC1"
  cell number change (%): 2.24
- Compound: "CN1CCN(C(=O)C2=C[C@@H](c3csc4ccccc34)C[C@@H](OCc3ccc(CO)cc3)O2)CC1"
  cell number change (%): 5.1
- Compound: "COCC(C)N1CCC(n2nccc2NC(=O)c2ccc3c(c2)OCO3)CC1 (stereo not given)"
  cell number change (%): 11.7
- Compound: "CCCCC[C@H](O)/C=C/[C@@H]1[C@@H](C/C=C\\CCCC(=O)OC)[C@@H](O)C[C@H]1O"
  cell number change (%): 2.9
- Compound: "CCCS(=O)(=O)C/C(N)=N/OC(=O)c1ccccc1Cl"
  cell number change (%): -2.12
- Compound: "CC1(C)CC(N2CCN(C(c3ccccc3)c3ccccc3)CC2)=CC(=[N+]2CCCCC2)C1"
  cell number change (%): -24.2
- Compound: "CCCCCCC(=O)Oc1ccc(N2C(=O)CCC2=O)cc1"
  cell number change (%): -4.94
- Compound: "O=C(O)CN1C(=O)NC2(CCCc3ccccc32)C1=O (stereo not given)"
  cell number change (%): 8.55
